Sourced from patent US4241069A

Test system Proteus vulgaris NRRL B123, MIC listed for each of the compounds.

{"COMPOUND": "C=C1C(=O)c2ccccc2OC1c1ccc([N+](=O)[O-])cc1 (centres unmarked)", "MIC": "> 100 µg/mL"}
{"COMPOUND": "C=C1C(=O)c2ccccc2OC1c1ccc(Cl)cc1 (centres unmarked)", "MIC": "> 100 µg/mL"}
{"COMPOUND": "C=C1C(=O)c2ccccc2OC1(c1ccccc1)c1ccccc1", "MIC": "> 100 µg/mL"}
{"COMPOUND": "CN(C)CC1C(=O)c2ccccc2OC1c1ccccc1 (centres unmarked) [MA 1347, 3-(dimethylaminomethyl)flavanone, reference compound]", "MIC": "> 100 µg/mL"}
{"COMPOUND": "C=C1C(=O)c2ccccc2OC1c1ccc(C)cc1 (centres unmarked)", "MIC": "> 100 µg/mL"}

----------
MIC, C. albicans NRRL Y-477, per-entry values.

{"COMPOUND": "C=C1C(=O)c2ccccc2OC1c1ccc(Cl)cc1Cl (stereo not shown) [Ex. 4, 2',4'-dichloro-3-methylene flavanone]", "MIC / µg/mL": 25}
{"COMPOUND": "C=C1C(=O)c2ccccc2OC1c1ccc(Br)cc1 (stereo not shown) [Ex. 6, 4'-bromo-3-methylene flavanone]", "MIC / µg/mL": 25}
{"COMPOUND": "C=C1C(=O)c2cc(Br)ccc2OC1c1ccc(Br)cc1 (stereo not shown) [Ex. 17, 4',6-dibromo-3-methylene flavanone]", "MIC / µg/mL": 100}
{"COMPOUND": "C=C1C(=O)c2ccccc2OC1c1ccc(Cl)cc1 (stereo not shown) [Ex. 3, 4'-chloro-3-methylene flavanone]", "MIC / µg/mL": 12.5}

----------
Here's a batch of molecules along with measured MIC for A. fumigatus NRRL 165.
QUANTITY: MIC (µg/mL)

{"MOLECULE": "C=C1C(=O)c2ccccc2OC1c1ccc2ccccc2c1 (stereo not drawn)", "QUANTITY": "MIC", "QUALIFYING_SIGN": ">", "VALUE_MEASURED": 100}
{"MOLECULE": "C=C1C(=O)c2ccccc2OC1c1ccc(N(C)C)cc1 (stereo not drawn)", "QUANTITY": "MIC", "QUALIFYING_SIGN": ">", "VALUE_MEASURED": 100}
{"MOLECULE": "C=C1C(=O)c2ccccc2OC1c1cccc2ccccc12 (stereo not drawn)", "QUANTITY": "MIC", "QUALIFYING_SIGN": ">", "VALUE_MEASURED": 100}
{"MOLECULE": "C=C1C(=O)c2ccccc2OC1c1ccc(Cl)cc1 (stereo not drawn)", "QUANTITY": "MIC", "QUALIFYING_SIGN": "=", "VALUE_MEASURED": 50}
{"MOLECULE": "C=C1C(=O)c2ccccc2OC1c1ccc(C)cc1 (stereo not drawn)", "QUANTITY": "MIC", "QUALIFYING_SIGN": "=", "VALUE_MEASURED": 50}
{"MOLECULE": "C=C1C(=O)c2ccccc2OC1c1ccc([N+](=O)[O-])cc1 (stereo not drawn)", "QUANTITY": "MIC", "QUALIFYING_SIGN": "=", "VALUE_MEASURED": 100}
{"MOLECULE": "C=C1C(=O)c2ccccc2OC1c1ccc(C#N)cc1 (stereo not drawn)", "QUANTITY": "MIC", "QUALIFYING_SIGN": "=", "VALUE_MEASURED": 100}
{"MOLECULE": "C=C1C(=O)c2ccccc2OC1c1cccc(OC)c1 (stereo not drawn)", "QUANTITY": "MIC", "QUALIFYING_SIGN": ">", "VALUE_MEASURED": 100}
{"MOLECULE": "C=C1C(=O)c2ccccc2OC1c1cccc(Cl)c1 (stereo not drawn)", "QUANTITY": "MIC", "QUALIFYING_SIGN": "=", "VALUE_MEASURED": 100}
